- study-target: FGFR1 (h) (Homo sapiens, UniProt P11362)
- Sequence (P11362 22-822): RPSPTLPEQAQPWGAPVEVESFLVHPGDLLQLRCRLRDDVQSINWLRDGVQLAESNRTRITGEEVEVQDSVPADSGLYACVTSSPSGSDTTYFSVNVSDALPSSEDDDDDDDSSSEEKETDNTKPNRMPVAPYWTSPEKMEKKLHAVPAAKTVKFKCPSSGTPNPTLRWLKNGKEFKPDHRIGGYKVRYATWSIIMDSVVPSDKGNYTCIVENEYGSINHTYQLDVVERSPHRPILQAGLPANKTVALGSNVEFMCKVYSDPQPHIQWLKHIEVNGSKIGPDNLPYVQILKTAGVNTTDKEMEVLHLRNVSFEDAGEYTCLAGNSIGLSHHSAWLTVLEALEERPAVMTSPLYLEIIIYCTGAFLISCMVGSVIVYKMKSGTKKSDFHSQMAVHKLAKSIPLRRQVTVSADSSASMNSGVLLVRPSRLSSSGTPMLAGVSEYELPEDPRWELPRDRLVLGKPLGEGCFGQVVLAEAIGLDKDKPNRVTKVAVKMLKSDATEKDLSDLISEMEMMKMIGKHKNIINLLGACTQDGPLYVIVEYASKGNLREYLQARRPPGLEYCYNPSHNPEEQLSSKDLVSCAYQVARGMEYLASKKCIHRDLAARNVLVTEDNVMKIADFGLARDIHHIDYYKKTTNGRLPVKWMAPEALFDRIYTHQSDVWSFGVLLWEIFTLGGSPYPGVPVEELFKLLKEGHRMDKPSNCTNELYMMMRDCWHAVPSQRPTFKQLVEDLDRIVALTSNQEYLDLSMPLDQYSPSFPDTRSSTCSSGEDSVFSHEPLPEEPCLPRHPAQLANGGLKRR
- assay-info: FGFR1 (enzymatic assay), TR-FRET
- Format: biochemical
- condition-set: read-out: FGFR 1 pIC50 (converted)
readout-kind: IC50 (nM)

COc1cc(OC)cc(N(CC2CC2)c2ccc3ncc(-c4cnnn4C)nc3c2)c1
537

I = CNc1ccc(-c2cnc3ccc(N(CCCO)c4cc(OC)cc(OC)c4)cc3n2)cn1
II = COc1cc(OC)cc(N(CCCO)c2ccc3ncc(-c4ccnc(Cl)c4)nc3c2)c1
III = COc1cc(OC)cc(N(CC2CC2)c2ccc3ncc(C(=O)Nc4cncn4C)nc3c2)c1
IV = COc1cc(OC)cc(N(CC2CC2)c2ccc3ncc(C#Cc4ccncc4)nc3c2)c1
V = COc1cc(OC)cc(N(CCNC(C)C)c2ccc3ncc(C(=O)NCCN4CCOCC4)nc3c2)c1
Asked: Order the records by IC50, with each subsequent value no larger than the one before. Answer by naming the labels in the order asked.
Given back: IV, III, V, II, I
(IV: 501 nM, III: 269 nM, V: 42.7 nM, II: 24 nM, I: 7.24 nM)

A = COc1cc(OC)cc(N(CC2CC2)c2ccc3ncc(-c4cn(CCN5CCOCC5)nn4)nc3c2)c1
B = COc1cc(OC)cc(N(CC2CC2)c2ccc3ncc(-c4c[nH]cn4)nc3c2)c1
Asked: // pick larger IC50 from pair: A vs B Respond with the label that goes with your answer.
Given back: B
(B: 31.6 nM, A: 20.4 nM)
